measuredOn: T1, ΔNp63β (Homo sapiens, UniProt Q9H3D4-4 1-461)
T1 sequence: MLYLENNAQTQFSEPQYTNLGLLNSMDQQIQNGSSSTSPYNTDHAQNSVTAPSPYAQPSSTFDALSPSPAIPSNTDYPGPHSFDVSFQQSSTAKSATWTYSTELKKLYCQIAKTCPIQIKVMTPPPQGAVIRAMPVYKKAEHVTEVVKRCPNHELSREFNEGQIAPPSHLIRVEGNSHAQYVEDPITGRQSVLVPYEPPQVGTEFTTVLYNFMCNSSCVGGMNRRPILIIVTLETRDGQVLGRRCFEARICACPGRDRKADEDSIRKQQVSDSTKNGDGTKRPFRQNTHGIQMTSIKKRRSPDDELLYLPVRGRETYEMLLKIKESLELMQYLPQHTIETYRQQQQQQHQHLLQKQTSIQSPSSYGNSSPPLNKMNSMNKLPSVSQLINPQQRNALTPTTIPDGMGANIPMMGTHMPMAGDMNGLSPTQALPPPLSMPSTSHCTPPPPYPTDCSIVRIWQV
method: fluorescence anisotropy direct titration; 25 mM sodium phosphate (purification buffer pH 7.2), 225 mM NaCl, 10% v/v glycerol, 5 mM DTT, 0.2 mg/mL BSA, 22 C
settings: protein: recombinant; tags: N-terminal 6xHis-lipoyl-TEV tag, cleaved; chain copies: 4; label: 5'-Alexa488
experimentalReadout: pKd
One number for each entry, as −log10 of the molar value.

Lookup: Report measured pKd; entry is Ref_Alexa488 (dsDNA) DNA 1: GGACATGTCCGGACATGTCC DNA 2: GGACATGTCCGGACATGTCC
Found: 7.13

Reference source: paper PMC2807882
